# credit: ChEMBL document CHEMBL3272033

test system: Mus musculus; assay: Toxicity in ip dosed Swiss-Webster albino mouse; format: organism-based; conditions: in vivo

compound	LD50
COc1cc(C(=O)N[C@@H]2CCC[C@@H]3CCN(C)C[C@@H]32)cc(OC)c1OC (mixture of isomers)	1170
CN1CC[C@H]2CCC[C@@H](NC(=O)c3ccccc3)[C@@H]2C1 (mixture of isomers)	1450
CN1CC[C@H]2CCC[C@@H](OC(=O)c3ccc(Cl)cc3)[C@H]2C1 (mixture of isomers)	1200
CN1CC[C@H]2CCC[C@@H](NC(=O)c3ccc(Cl)c(Cl)c3)[C@@H]2C1 (mixture of isomers)	1304
COc1ccc(C(=O)N[C@@H]2CCC[C@@H]3CCN(C)C[C@@H]32)cc1OC (mixture of isomers)	1770
COc1cc(C(=O)O[C@@H]2CCC[C@@H]3CCN(C)C[C@@H]32)cc(OC)c1OC (mixture of isomers)	421
